Species on record: Cavia porcellus
test: In vitro for smooth muscle calcium channel antagonist activity
Assay type: functional
condition_context: Muscle tissue
Quick reference for IC50 among some compounds
measure_name: IC50 (µM)

# compound_structure, readout_value
rows = [
    ("CC1=NC(C)=C([N+](=O)[O-])[C@H](c2ccccc2C(F)(F)F)/C1=C(\\O)OCCO[N+](=O)[O-]", 0.079),
    ("CC1=NC(C)=C([N+](=O)[O-])[C@@H](c2ccccc2C(F)(F)F)/C1=C(\\O)OCCO[N+](=O)[O-]", 16),
    ("CO/C(O)=C1\\C(C)=NC(C)=C([N+](=O)[O-])[C@H]1c1ccccc1C(F)(F)F", 16),
]
